Reported values of Max OD (%) (Figure 3f) for individual entries
tested on: E. coli DH5α cells; assay: Inhibition of bacterial cell growth by CPPs (Max OD600 relative to control); assay type: cell-based, Escherichia coli; conditions: E. coli DH5α diluted 1/1000 in LB, 5 μg TAMRA-CPP (0.1 μg/μL), OD600 monitored 18 h; max OD of treated cells / max OD of control cells; replicate 3
Where no end group is shown, it is not given here.
# number only, unit % dropped from output

Tat (GRKKRRQRRRPPQRKC; also: TAMRA label, site not given here) [CPP 67, TAMRA-labeled CPP of the 98-CPP library]
61.2735

Next substance, please.
Query block: API: value(readout= Max OD (%) (Figure 3f), system= E. coli DH5α cells, query= R9-TAT (GRRRRRRRRRPPQ; also: TAMRA label, site not given here) [CPP 14, TAMRA-labeled CPP of the 98-CPP library, one of five used to evaluate delivery methods] )
Result block: 64.6762
